Target: cyPD1 (cynomolgus monkey)
Assay: biosensor kinetics (BLI type); antibody captured on anti-human Fc biosensor, PD-1 in solution
Here, each record is paired with measured koff data.
Answer format: numeric, s⁻¹ implied, no suffix.

binder	koff, s⁻¹
TA102 (antibody, V domains shown, Fc SEQ 587, CL SEQ 416) VH: DVQLVESGGGVVRPGESLRLSCAASGFTFRNYDMTWVRQAPGEGLEWVATISGTDDTTYYADSVKGRATISRDNSNNTLYLRLFSLRAEDTAIYYCAREASNSFIDYWGLGTLVTVSS VL: QSVLTQPPSASGTPGQRVTISCSGSSSNIGRRYVYWYQQLPGTAPKLLIYRNFERPSGVPDRFSGSKSGTSASLAISGLQSEDEADYYCASWDESLNGWVFGGGTKLTVL	0.01

Next item in the queue.
Quick one: give measured koff for TA101 (antibody, V domains shown, Fc SEQ 587, CL SEQ 416) VH: DVQLVESGGGVARPGEFLRLSCAASGFTFRDYDMGWVRQAPGEGLEWVSSISVSGTTYYADSVKGRFTISRDNSENTLYLQMNSLTAEDTAVYYCGREDTLFHYWGLGTLVTVSS VL: QSVLTQPPSASGTPGQRVTISCSGSTSNIGTRYVYWYQQLPGTAPKLLIYKNLQRPSGVPDRFSGSKSGTSASLAISGLQSEDEADYYCAAWDERLNGWVFGGGTKLTVL 0.0076
